Target or system TGFβR2 (Homo sapiens (Human), UniProt P37173); recorded quantity IC50.

Item CC(C)(O)c1ccc(Nc2cc(Oc3cc(C(F)(F)F)nn3-c3ccccc3F)ccn2)cn1 [Compound 52] : provide IC50
16 µM

Item CC(C)(O)c1cc(Nc2cc(Oc3cc(C4CC4)nn3C3CCOCC3)ncn2)ccn1 [Compound 3] : provide IC50
> 100 µM

Item CC(C)(O)c1cc(Nc2cc(Oc3cc(C4CC4)nn3[C@@H]3C[C@H]4CC[C@@H](C3)O4)ccn2)ccn1 [Compound 29] : provide IC50
89 µM

Item CC(C)(O)c1cc(Nc2cc(Oc3cn(CC(F)(F)F)nc3C3CCOCC3)ccn2)ccn1 [Compound 69] : provide IC50
> 100 µM

Item Cc1ccc(Oc2ccnc(Nc3ccnc(C(C)(C)O)c3)c2)c(C)n1 [Compound 57] : provide IC50
> 100 µM

Item Cc1ccc(Oc2ccnc(Nc3ccnc(C(C)(C)O)c3)c2)c(C2CC2)n1 [Compound 58] : provide IC50
11 µM

Item CC(C)(O)c1cc(Nc2cc(Oc3cc(C4CC4)nn3CC(F)(F)F)ccn2)ccn1 [Compound 21] : provide IC50
> 100 µM

Item CC(C)(O)c1cc(Nc2cc(Oc3cc(C(F)(F)F)nn3-c3c(F)cccc3F)ccn2)ccn1 [Compound 45] : provide IC50
21 µM

Item CC(C)(O)c1cc(Nc2cc(Oc3cc(C(F)(F)F)nn3-c3ccccc3F)ccn2)ccn1 [Compound 38] : provide IC50
15 µM

Item CC(C)(O)c1cc(Nc2cc(Oc3cccnc3C3CCOCC3)ccn2)ccn1 [Compound 54] : provide IC50
> 100 µM

Item CC(C)(C)n1nc(C2CC2)cc1Oc1ccnc(Nc2ccc(S(N)(=O)=O)cc2)c1 [Compound 15] : provide IC50
> 100 µM

Item NS(=O)(=O)c1ccc(Nc2cc(Oc3cc(C(F)(F)F)nn3C3CCOCC3)ccn2)cc1 [Compound 12] : provide IC50
> 100 µM

Item N#Cc1cccc(Nc2cc(Oc3cc(C(F)(F)F)nn3C3CCOCC3)ccn2)c1 [Compound 9] : provide IC50
> 100 µM

* * *

runDescription: Human hepatocyte clearance study
Format: in vitro ADME
conditionLabel: human, pooled cryopreserved human hepatocytes (suspension); read-out: Human In vitro T1/2
Experimental: The in vitro human hepatocyte clearance of compounds described here was studied using pooled human hepatocytes purchased from BioreclamationIVT (Westbury, N.Y., Cat #X008001, Lot #TQJ). The assay was conducted according to manufacturer's instruction. […] Hepatocyte viability and density were counted using a Trypan Blue exclusion, and then cells were diluted with serum-free incubation medium to a working cell density of 0.5×10^6 viable cells/mL. […]
Assignment: determine reported half-life at 1 µM for the given compounds.
Put down the number, then write its unit next to it.

Item `Cn1nc(C(F)(F)F)cc1Oc1ccnc(Nc2ccnc(C(C)(C)O)c2)c1` : provide half-life at 1 µM
10.4 h

Item `NS(=O)(=O)c1ccc(Nc2cc(Oc3cc(C(F)(F)F)nn3C3CCOCC3)ccn2)cc1` : provide half-life at 1 µM
3 h

Item `Cc1ccc(Oc2ccnc(Nc3ccnc(C(C)(C)O)c3)c2)c(C)n1` : provide half-life at 1 µM
9.73 h

Item `CC(C)(O)c1ccc(Nc2cc(Oc3cc(C(F)(F)F)nn3C3CCOCC3)ccn2)cn1` : provide half-life at 1 µM
4.03 h

Item CC(C)(O)c1cc(Nc2cc(Oc3cn(C4CC4)nc3C3CCOCC3)ccn2)ccn1 [Compound A, reference compound] : provide half-life at 1 µM
1.85 h

Item `CC(C)(O)c1cc(Nc2cc(Oc3cccnc3C3CCOCC3)ccn2)ccn1` : provide half-life at 1 µM
3.38 h

Item `NS(=O)(=O)c1ccc(Nc2cc(Oc3cc(C4CC4)nn3C3CC3)ccn2)cc1` : provide half-life at 1 µM
3.08 h
